test name: qHTS for Hypoxia signaling pathway (HIF-1) antagonists against the NCATS CANVASS Library (AID 1347374); also: nearly all actives have a fitted effect of over 60% in size; also: potency is read from the fitted curve at half-maximal effect
particulars: HRE-bla ME-180 cells, HIF-1 beta-lactamase reporter, CoCl2; series mostly up to 38.3 µM
Records with an inconclusive call do not appear. The source made the active and inactive calls. Calls follow the shape of the dose curve; as a rule, active = well fitted inhibition curve with a large enough effect; inconclusive = small, poorly fitted or top-dose-only effect; inactive = no such curve, though single readings can be large or run the other way.
readout name: Potency

compound	value reported
COc1cc(/C=C2/C(=O)N(c3ccc(O)cc3C(=O)O)[C@H](c3ccc(O)c(OC)c3)C2C(=O)Nc2ccc(O)cc2C(=O)O)ccc1O (stereo partly drawn)	8.38 µM (active)
C=C1C[C@@]23C=CC(=O)[C@@](C)(CCCC(C)C(=O)O)[C@@H]2C[C@@H]1CC3 (stereo partly drawn)	inactive
C=C[C@]1(C)CC[C@@H]([C@H](C)C(=O)/C=C/C(C)C)O1	inactive

###

System: PAD
test name: qHTS profiling for inhibitors of Plasmodium falciparum proliferation (AID 504749); also: nearly all actives have a fitted effect of over 60% in size
particulars: P. falciparum in erythrocytes, SYBR Green DNA, 72 h; series mostly up to 28.7 µM
Inconclusive results are not listed. Active and inactive are the calls of the source. Calls follow the shape of the dose curve; as a rule, active = well fitted inhibition curve with a large enough effect; inconclusive = small, poorly fitted or top-dose-only effect; inactive = flat fitted curve, though single readings scatter.
Possible outcomes: TRUE (active), FALSE (inactive)

compound	group label
CC(=O)[C@H]1CC[C@H]2C3CC=C4C[C@@H](O)CC[C@]4(C)C3CC[C@]12C (stereo not given in full)	FALSE
O=C(CC1NCCC[C@H]1O)Cn1cnc2cc(Br)c(Cl)cc2c1=O (stereo not given in full)	TRUE
CC(C)C[C@@H](NC(=O)[C@H](Cc1ccccc1)NC(=O)c1cnccn1)B(O)O	TRUE
C[C@@H](C(=O)O)c1ccc(-c2ccccc2)c(F)c1	FALSE
COC(=O)[C@@H]1[C@@H]2C[C@H]3c4[nH]c5ccccc5c4CCN3C[C@@H]2CC[C@@H]1O	FALSE

###

measured target: Cytochrome P450 2D6 (Homo sapiens) (UniProt P10635)
Sequence (P10635 whole entry, looked up): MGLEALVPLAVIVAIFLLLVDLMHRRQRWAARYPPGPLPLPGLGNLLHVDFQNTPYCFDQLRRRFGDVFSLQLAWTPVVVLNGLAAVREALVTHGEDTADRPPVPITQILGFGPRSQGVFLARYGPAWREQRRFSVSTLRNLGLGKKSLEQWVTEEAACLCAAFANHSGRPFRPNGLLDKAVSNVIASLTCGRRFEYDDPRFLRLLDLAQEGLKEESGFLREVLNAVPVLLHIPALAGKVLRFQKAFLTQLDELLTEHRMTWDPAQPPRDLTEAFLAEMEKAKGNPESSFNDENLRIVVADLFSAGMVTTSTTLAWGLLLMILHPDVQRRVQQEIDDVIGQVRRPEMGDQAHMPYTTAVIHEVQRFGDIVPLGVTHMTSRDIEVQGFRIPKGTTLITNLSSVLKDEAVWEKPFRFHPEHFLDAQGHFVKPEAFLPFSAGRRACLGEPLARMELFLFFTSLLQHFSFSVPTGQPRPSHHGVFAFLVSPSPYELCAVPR
test name: qHTS Assay for Inhibitors and Substrates of Cytochrome P450 2D6 (AID 891);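 also: luciferin methyl ether substrate demethylated by CYP2D6 with NADPH regeneration; % is scaled to controls: 0 for no effect and ±100 for the full control effect; nearly all actives have a fitted effect of over 60% in size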
particulars: recombinant CYP2D6, luciferin-ME EGE luminescence; series mostly up to 57.1 µM
Inconclusive results are not listed. Calls of active or inactive are those of the source. The call rests on the fitted dose curve; in most records, active means well fitted inhibition curve with a large enough effect; inconclusive means small, poorly fitted or top-dose-only effect; inactive means no such curve, though single readings can be large or run the other way.
// values below are reported activity change, negative = inhibition
readout name: activity change, negative = inhibition

compound	value reported
N#CCCN(CC#Cc1ccccc1)OCc1ccccc1	-16.6% [at 11.4 µM] (inactive)
CC1(O)C(=O)C=C2C=C(CCCCOCc3ccccc3)OC=C2C1=O (configuration not stated)	-3.73% [at 11.4 µM] (inactive)
C=C(CC(=O)OC)C[C@]1(CC(=O)OC)CC2(CC=C(C)C)C(=O)C(C(=O)c3ccccc3)=C(OC(=O)c3ccc(Br)cc3)C(CC=C(C)C)(C1)C2=O (some centres not stated)	-5% [at 11.4 µM] (inactive)
C=CCC1(O)C=CCC2C3C4C(OC(C)(C)C)C2C1C34 (configuration not stated)	-4.54% [at 11.4 µM] (inactive)
CC(C)(C)OC(=O)C1=NOC2(C=CC(=O)C=C2)C1	-10.1% [at 11.4 µM] (inactive)
Cc1c(O)ccc2c1OCO2	-1.17% [at 11.4 µM] (inactive)
CNc1ccccc1C(=O)OCC(C)=O	9.06% [at 11.4 µM] (inactive)

###

measured target: alpha-glucosidase (Oryza sativa, rice)
test name: Counterscreen for Glucocerebrosidase Inhibitors: qHTS Assay for Rice alpha-Glucosidase at pH 5.0 (AID 997);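 also: 0% = full activity with enzyme and -100% = basal without enzyme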
particulars: rice alpha-glucosidase enzyme activity; series mostly up to 76.9 µM
Active and inactive are the calls of the source. Calls follow the shape of the dose curve; as a rule, active = well fitted curve in the direction sought with a large enough effect; inconclusive = small, poorly fitted or top-dose-only effect, or another doubt; inactive = no such curve, though single readings can be large or run the other way.

smiles string	measured target	outcome
COc1cccc(OC)c1OCCNC[C@@H]1COc2ccccc2O1	alpha-glucosidase (Oryza sativa, rice)	inactive
CCCCOc1cc(C[C@@H]2CNC(=O)N2)ccc1OC	alpha-glucosidase (Oryza sativa, rice)	inactive
CN(C)CCCCSC(=N)N	alpha-glucosidase (Oryza sativa, rice)	inactive
COC(=O)c1c(-c2cc(OC)c(OC)c(OC)c2)c2ccnc(OCc3ncccn3)c2c(=O)n1Cc1ccnc(C)c1	alpha-glucosidase (Oryza sativa, rice)	inactive
S=C(S)O[C@@H]1C[C@@H]2C[C@H]1[C@@H]1CCC[C@H]21	alpha-glucosidase (Oryza sativa, rice)	inactive
C[C@@H](/C=C\c1cccc(Oc2ccc(F)cc2)c1)N(O)C(N)=O	alpha-glucosidase (Oryza sativa, rice)	inactive
N#C/C(=C\c1ccc(O)c(O)c1)C(=O)Nc1ccccc1	alpha-glucosidase (Oryza sativa, rice)	inactive
N#CC(=C(/N)Sc1ccccc1N)/C(C#N)=C(/N)Sc1ccccc1N	alpha-glucosidase (Oryza sativa, rice)	inactive
CC1=C(\C=C/C(C)=C/C=C\C(C)=C\C(=O)O)C(C)(C)CCC1	alpha-glucosidase (Oryza sativa, rice)	inactive
CC(=O)N[C@@H](C(=O)O)C(C)(C)SN=O	alpha-glucosidase (Oryza sativa, rice)	inactive
CSc1ccc2c(c1)[C@H](N1CCN(C)CC1)Cc1ccccc1S2	alpha-glucosidase (Oryza sativa, rice)	inactive
C[C@@H]1CCN=C(N)S1	alpha-glucosidase (Oryza sativa, rice)	inactive

###

test name: P-glycoprotein substrates identified in KB-3-1 adenocarcinoma cell line, qHTS therapeutic library screen (AID 1346986); also: nearly all actives have a fitted effect of over 60% in size
particulars: KB-3-1 parental cells viability, CellTiter-Glo, 72 h; series mostly up to 44.5 µM
Inconclusive results are not listed. Calls of active or inactive are those of the source. Calls follow the shape of the dose curve; as a rule, active = well fitted inhibition curve with a large enough effect; inconclusive = small, poorly fitted or top-dose-only effect; inactive = no such curve, though single readings can be large or run the other way.
Outcomes: yes (1) (active), no (0) (inactive)

compound	group label
Nc1nc(N)c2nc(-c3cccc(O)c3)cnc2n1	yes (1)
C[n+]1cc(NC(=O)c2cccc(C(=O)Nc3cc4ccccc4[n+](C)c3)n2)cc2ccccc21	yes (1)
Oc1cccc(Nc2ccnc3cc(-c4cccc(CN5CCOCC5)c4)sc23)c1	yes (1)
Cc1cc(N2CCOCC2)cc2[nH]c(-c3c(NCC(O)c4cccc(Cl)c4)cc[nH]c3=O)nc12 (stereo unspecified)	yes (1)
CSc1nc(N)cc(Oc2ccc(-c3nc(Nc4cccc(C(F)(F)F)c4)n[nH]3)cc2)n1	yes (1)
C/C(=C1/C(=O)Nc2ccc(NC(N)=O)cc21)c1ccc[nH]1	yes (1)
COc1cc(OC)cc(N(CCNC(C)C)c2ccc3ncc(-c4cnn(C)c4)nc3c2)c1	yes (1)
NC(=O)c1nc(F)c[nH]c1=O	no (0)
COc1cc(F)ccc1-c1ncnc(Nc2cccc(CS(C)(=N)=O)c2)n1 (stereo unspecified)	yes (1)
CC(Sc1nc2c(cnn2-c2cccc(Cl)c2)c(=O)[nH]1)C(N)=O (stereo unspecified)	no (0)
Cc1cc(I)ccc1Nc1c(C(=O)NOCC2CC2)cc(F)c(F)c1F	yes (1)
C[C@@H](Oc1cc(-n2cnc3ccc(OC4CCN(C)CC4)cc32)sc1C(N)=O)c1ccccc1Cl	yes (1)
COC(=O)[C@]12CCC(C)(C)C[C@@H]1[C@@H]1C(=O)C=C3[C@]4(C)C=C(C#N)C(=O)C(C)(C)[C@@H]4CC[C@@]3(C)[C@]1(C)CC2	yes (1)
Cc1ccc(Nc2ncc3c(n2)N(C)C(=O)N(c2cc(NC(=O)c4cccc(C(F)(F)F)c4)ccc2C)C3)cn1	no (0)
CC(N)C1CCC(C(=O)Nc2ccncc2)CC1 (stereo unspecified)	no (0)
C[C@@H]1N=C(N)NC(N(C)C)=N1	no (0)
Clc1cc(Cl)c2c(c1)N=C1CCCCCN1C2	no (0)
Cc1nc(CN(C)c2ncnc3ccc(-c4ccc5c(c4)OCO5)cc23)cs1	yes (1)
Cc1cc(F)c(Nc2ncnc3cc(OCc4ccccc4)ccc23)cc1O	no (0)
Cc1c(-c2ccnc(Nc3cc(Br)cc(C(F)(F)F)c3)n2)sc(=O)n1C	no (0)
O=S(=O)(NCCNC/C=C/c1ccc(Br)cc1)c1cccc2cnccc12	no (0)

###

test name: HPAF-II Cancer Cell Toxicity qHTS against the NCATS CANVASS Library (AID 1347346); also: nearly all actives have a fitted effect of over 55% in size
particulars: HPAF-II viability, CellTiter-Glo ATP luminescence, 72 h; series mostly up to 38.3 µM
Inconclusive results are not listed. Calls of active or inactive are those of the source. Calls follow the shape of the dose curve; as a rule, active = well fitted cell-killing curve with a large enough effect; inconclusive = small, poorly fitted or top-dose-only effect; inactive = flat fitted curve, though single readings scatter.
Classes used: 1 (yes) for active, 0 (no) for inactive

compound	group label
O=C(O)[C@@]12COC3(O)C1CCN1CC[C@H]3[C@@H]1c1c2[nH]c2ccccc12	0 (no)
C/C(=C\[C@H](C)C(=O)CCCC1CC(=O)NC(=O)C1)[C@@H]1OC(=O)/C=C/CC/C=C/C[C@@H](O)[C@@H]1C	1 (yes)
CN1CCc2cc3c(c4c2[C@H]1[C@@H](O)c1ccccc1-4)OCO3	1 (yes)
C=C1C(=O)O[C@H]2[C@H]1CC/C(CO)=C\CC[C@@]1(C)O[C@@H]21	1 (yes)
O=C(OC1Cc2c(O)cc(O)cc2OC1c1cc(O)c(O)c(O)c1)c1cc(O)c(O)c(O)c1 (stereo not given)	0 (no)
CO[C@H]1/C=C/CC[C@@H](S[C@@H]2O[C@H](CO)[C@@H](O)[C@H](O)[C@H]2O)CC(=O)O[C@@H](/C(C)=C/[C@H](C)C(=O)CCCC2CC(=O)NC(=O)C2)[C@@H](C)[C@@H]1O	1 (yes)
CC1C(=O)C23CCC1C[C@@]21O[C@H]2C(C)(C)C=CC(=O)[C@@]23COC1=O (stereo not given in full)	0 (no)
CS/C=C/C(N)=O	0 (no)
C[C@@H]1O[C@@H](O[C@@H]2[C@@H](O)[C@H](O[C@@H]3[C@@H](O)[C@@H](O)C(O[C@H]4[C@H](OC(=O)[C@]56CCC(C)(C)C[C@H]5C5=CCC7[C@@]8(C)C[C@H](O)[C@H](O[C@@H]9C[C@H](CO)[C@@H](O)[C@H](O)[C@H]9O)[C@@](C)(CO)C8[C@H](O)C[C@@]7(C)[C@]5(C)CC6)OC[C@H](O)[C@@H]4O)O[C@H]3C)OC[C@H]2O)[C@H](O)[C@H](O)[C@H]1O (stereo not given in full)	0 (no)
C[C@@H]1O[C@@H](Oc2c(-c3ccc(O)cc3)oc3cc(O)cc(O)c3c2=O)[C@H](O)[C@H](O)[C@H]1O	0 (no)
O=C1C[C@@H](c2ccc(O)c(-c3c(O)cc(O)c4c3O[C@H](c3ccc(O)cc3)CC4=O)c2)Oc2cc(O)cc(O)c21	0 (no)
CC1(C)C=Cc2c(ccc3c2OC[C@@H](c2ccc(O)cc2O)C3)O1	0 (no)
O=c1cc(-c2ccc(O)c(O[C@@H]3O[C@H](CO)[C@@H](O)[C@H](O)[C@H]3O)c2)oc2cc(O[C@@H]3O[C@H](CO)[C@@H](O)[C@H](O)[C@H]3O)cc(O)c12	0 (no)
CC(=O)O[C@@H]1C=C2C(=O)OC[C@]2(O)[C@@]2(C)CCCC(C)(C)[C@H]12	1 (yes)
C[C@H]1C[C@@H]([C@@H]2CC[C@]34O[C@H](CC[C@@]35C[C@H](C)C(=O)O5)CN24)OC1=O	0 (no)
CC1(C)CC[C@]2(C(=O)O)CC[C@]3(C)C(=CC[C@@H]4[C@@]5(C)C[C@@H](O)[C@H](O)C(C)(C)[C@@H]5CC[C@]43C)[C@@H]2C1	0 (no)
C/C1=C\CC(=O)/C=C/C=C\c2csc(n2)[C@@H](C)NC(=O)C[C@@](S)([C@@H](C)C(=O)O)CC1	0 (no)
CCCCCCCCC[C@@H]1C[C@@H]2CC[C@H]3[C@@H](C(=O)OCCCCN=C(N)N)[C@@H](C)N=C(N1)N23	1 (yes)
CC[C@@H]1C[C@@]2(CC)OC(=O)[C@@]3(CC)OC(=O)[C@@H]1[C@@H]23	0 (no)
COc1c(O)cc2oc(-c3ccccc3)cc(=O)c2c1O	0 (no)
C[C@@]12CCC[C@@](C)(C(=O)O)[C@H]1CC[C@]13C[C@H]4C[C@H](O[C@@]4(C)C1)[C@H]32	0 (no)
C/C=C/C(=O)[C@@H](C)C1=CC(=O)C2=C(O[C@@]34CC[C@H](O)C(C)(C)[C@@H]3CC[C@H](C)[C@@]4(C)C2)C1=O	1 (yes)
COc1ccc(/C=C2\COc3cc(O)ccc3C2=O)cc1	0 (no)
CCCCCCCCCCCCCCC[C@H](O)C[C@@H](O)C[C@@H](O)C[C@@H](O)C[C@@H](O)C[C@H]1CC=CC(=O)O1	1 (yes)
C/C=C/C=C/C1(O)C2C=C3C(=O)CC45C(=O)C(O)=C(C)C(=O)C4C1C1(C(=O)C(O)=C(C)C(=O)C351)C2C (stereo not given)	0 (no)
COc1cc(O)c2c3c(c(O)cc(C)c13)C(=O)OC2	0 (no)
Oc1ccc(/C=C2/c3cc(O)cc(O)c3C(c3ccc(O)cc3)[C@H]2c2cc(O)cc(O)c2)cc1 (stereo not given in full)	0 (no)
C[C@@]12CCC[C@@](C)(C(=O)O)[C@H]1C[C@@H](O)[C@]13C[C@H]4C[C@H](O[C@@]4(C)C1)[C@@H]23	0 (no)
CCCCCC[C@H](CCCCC[C@@H](O)C(N)=O)OC(=O)[C@@H]1CC=CN1C(=O)c1ccccc1O	0 (no)
CC1(C)[C@H](Br)CC[C@]23C[C@]4(C)C(=O)CC12C[C@H]34	0 (no)

The origin of these recorded values is PubChem BioAssay (NCATS).
